- system: Cytochrome P450 1A2 (Homo sapiens) (UniProt P05177)
- Sequence (P05177 whole entry, looked up): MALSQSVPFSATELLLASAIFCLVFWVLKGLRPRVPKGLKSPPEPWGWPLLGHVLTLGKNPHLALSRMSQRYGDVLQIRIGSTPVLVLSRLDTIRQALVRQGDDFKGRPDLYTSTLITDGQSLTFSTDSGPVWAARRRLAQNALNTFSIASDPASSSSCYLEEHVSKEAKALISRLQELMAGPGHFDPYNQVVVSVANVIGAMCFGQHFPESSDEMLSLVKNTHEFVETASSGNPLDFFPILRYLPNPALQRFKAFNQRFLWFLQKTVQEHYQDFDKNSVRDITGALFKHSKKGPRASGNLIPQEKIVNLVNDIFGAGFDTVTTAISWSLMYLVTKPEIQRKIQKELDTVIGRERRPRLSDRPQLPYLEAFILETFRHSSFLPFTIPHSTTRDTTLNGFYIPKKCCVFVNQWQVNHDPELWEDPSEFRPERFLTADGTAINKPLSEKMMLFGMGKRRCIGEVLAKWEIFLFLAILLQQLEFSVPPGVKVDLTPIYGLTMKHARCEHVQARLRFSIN
- procedure_details: Cytochrome panel assay with activity outcomes
- protocol_conditions: recombinant CYP, pro-luciferin dealkylation, luminescence, p450-cyp1a2; series mostly up to 57.1 µM
- Description: The P450 gene superfamily is involved in the metabolism and clearance of xenobiotics. This assay used various human CYP P450 isozymes to measure the dealkylation of various pro-luciferin substrates to luciferin. The luciferin is then measured by luminescence after the addition of a luciferase detection reagent. […] Inhibitors and some substrates limit the production of luciferin, and decrease measured luminescence. […] 8, Detection, 1 sec, ViewLux luminescent read […]
Hit rate of the full screen: of about 16,000 compounds, about 5,700 (36%) were called active. Roughly 24% stayed inconclusive and do not appear here. Some of the results follow.
measured_metric: AC50

>  <compound>
CC(/C=C/c1ccccc1)=N/NC(=O)CNC(=O)c1ccc2c(c1)OCO2

>  <AC50>
2.24 µM (active)

$$$$
>  <compound>
O=C(/C=C\c1ccc(O)c(O)c1)O[C@@H]1C[C@](O)(C(=O)O)C[C@@H](O)[C@@H]1O

>  <AC50>
inactive

$$$$
>  <compound>
Cc1nc2cnc(N3CCN(C)CC3)nc2n(C)c1=O

>  <AC50>
12.6 µM (active)

$$$$
>  <compound>
COc1cc2c(CCNC(C)=O)c[nH]c2cc1Cl

>  <AC50>
0.126 µM (active)

$$$$

Report AC50 for Cc1ccc(C(=O)CNc2nc3c(c(=O)[nH]c(=O)n3C)n2Cc2ccccc2)cc1
inactive

Report AC50 for Oc1ccc([C@@H]2CNCc3sccc32)cc1O
inactive

Report AC50 for CC(=O)NCCNc1cc(-c2ccccc2C)ncn1
15.8 µM (active)

Report AC50 for O=C(Nc1cccc(F)c1)N1CCC2(CCNCC2)CC1
inactive
